- Test system: Plasmodium berghei
- MEASUREMENT_PROTOCOL: Screen against P. berghei liver stage (PbLuc), transformed with Luciferase, at 10uM
- Assay type: functional, HepG2
- STATED_CONDITIONS: tested at 10 uM
The campaign covered roughly 69,000 compounds. About 8,600 (12%) showed an effect of 50% or more. The list comes from a sample in which strong results are over-represented; it also holds close analogues and randomly drawn compounds.
Label scheme for INHIBITION: bucket A = under 20%, bucket B = from 20% up to 40%, bucket C = 40% and over

Answered examples (3):
CN(Cc1cnn(C)c1)C(=O)c1ccc(=O)n(C)n1	bucket A
CCSc1nc2ccccc2c(=O)n1OCC(=O)OC	bucket C
CCc1nc2ccccc2c(=O)n1CC1(O)CCN(CC(=O)OC)CC1	bucket A

Which bin should I file c1ccc(-c2cnc3n2CCNC32CCNCC2)cc1 under?
bucket A

Which bin should I file c1ccc(CC2CCN(Cc3ccnc(-c4cccnc4)n3)CC2)cc1 under?
bucket C

Which bin should I file CN(C)CC1CN(C(=O)Cc2ccccc2)Cc2nccn2C1 (stereo not given) under?
bucket B

These measurements were taken from ChEMBL document CHEMBL4513216.
